Entries and their measured inhibition follow.
# System: Pantothenate synthetase (Mycobacterium tuberculosis (strain ATCC 25618 / H37Rv)) (UniProt P9WIL5)
# Sequence (P9WIL5 whole entry, looked up): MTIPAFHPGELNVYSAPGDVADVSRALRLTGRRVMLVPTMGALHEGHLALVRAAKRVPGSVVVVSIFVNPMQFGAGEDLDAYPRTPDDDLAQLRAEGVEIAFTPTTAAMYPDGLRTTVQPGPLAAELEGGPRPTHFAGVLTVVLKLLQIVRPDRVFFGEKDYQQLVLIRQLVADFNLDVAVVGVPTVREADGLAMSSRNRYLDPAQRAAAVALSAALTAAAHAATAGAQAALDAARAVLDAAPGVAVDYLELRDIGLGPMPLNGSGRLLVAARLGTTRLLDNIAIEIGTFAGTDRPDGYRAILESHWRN
# Experimental Protocol: Coupled enzyme confirmation of inhibitors against recombinant Mtb PanC (AID 375);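 also: 0% = full reaction with vehicle and 100% = no enzyme background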
# Condition Set: coupled enzyme assay; at 10 µM, stronger effect = higher value

| Compound | inhibition / % |
| --- | --- |
| CN(C)c1ccc2c(c1)OC(N)=C(C#N)C2c1cccc(F)c1 (stereo unspecified) | 0 |
| Cc1ccc(SCC(=O)NCCN2C(=O)CSC2=O)c(C)c1 | 0 |
| COc1cccc(-n2c(SCC(=O)Nc3cc(C)on3)nc3c([nH]c4ccccc43)c2=O)c1 | 2 |
| CC(=O)NC(C)c1nc2ccccc2n1C(C)C (stereo unspecified) | 6 |
| CCC(C)(C)n1nnnc1C(c1ccc(OC)c(OC)c1)N1CCN(c2ccccc2)CC1 (stereo unspecified) | 0 |
| CCc1nnc(NC(=O)C2Cc3ccccc3CN2S(=O)(=O)c2cccs2)s1 (stereo unspecified) | 1 |
| CN(C1CCCCC1)S(=O)(=O)c1ccc(S(=O)(=O)N2CCCC2)cc1 | 0 |
| Cc1cccc(C)c1OCC(=O)Nc1cccc(NC(=O)c2ccco2)c1 | 12 |
| CC(C)(C)n1cnc2cc(NS(=O)(=O)c3ccc(Br)cc3)ccc21 | 7 |
| Cc1cccc(Cc2c(C)nc3nc(SCC(=O)NCc4ccco4)nn3c2C)c1 | 2 |
| O=C(NCC(c1cccnc1)N1CCOCC1)c1cccs1 (stereo unspecified) | 0 |

* * *

# maps each entry to its inhibition
# System: Pantothenate synthetase (Mycobacterium tuberculosis (strain ATCC 25618 / H37Rv))
# Experimental Protocol: Coupled enzyme confirmation of inhibitors against recombinant Mtb PanC (AID 375);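 also: 0% = full reaction with vehicle and 100% = no enzyme background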
# Condition Set: coupled enzyme assay; at 10 µM, stronger effect = higher value

| Molecule | Measurement Unit | inhibition |
| --- | --- | --- |
| CCOc1ccccc1N(CC(=O)NC1CCCC1)C(=O)CCCC(=O)Nc1ccccn1 | % | 5 |
| COC(=O)Cc1[nH]nc2c1C(C1C=CCCC1)C(C#N)=C(N)O2 (stereo not given) | % | 3 |
| CN(C)/C=C1\N=C(c2ccc3c(c2)OCO3)OC1=O | % | 0 |
| Cc1cc(=O)[nH]c(=S)n1-c1ccccc1 | % | 17 |
| CCC1CCCN1Cn1cnc2c([nH]c3ccc(OC)cc32)c1=O (stereo not given) | % | 1 |
| Cc1nc(/N=C(\N)Nc2ccccc2)nc2ccccc12 | % | 0 |
| O=S(=O)(NCCc1ccccn1)c1cccs1 | % | 3 |
| Cc1nc2ccccn2c1/C(O)=C1\C(=O)C(=O)N(CCN2CCOCC2)C1c1cccs1 (stereo not given) | % | 0 |
| CCOC(=O)c1sc(NC(=O)COC(=O)Cn2cnc3ccccc32)c(C(=O)OCC)c1C | % | 3 |
| CCCN(CCC)C(=O)c1c(C)[nH]c(C(=O)OCC)c1C | % | 0 |
| CN(CC(=O)Nc1sccc1C#N)C1CCCCC1 | % | 0 |
| CCOc1ccc(N(CC(=O)NC2CCCC(C)C2C)S(=O)(=O)c2c(C)noc2C)cc1 (stereo not given) | % | 2 |
| O=C1CCCC2=C1C(c1ccc(Br)cc1)c1c([nH]c(=S)[nH]c1=O)N2 (stereo not given) | % | 0 |
| CCCN1CCC(NC(=O)Nc2ccc(OC)c(OC)c2)CC1 | % | 0 |
| Cc1ccc(Cn2c(SCCN3CCCCC3)nc3c2c(=O)[nH]c(=O)n3C)cc1 | % | 2 |
| COCCNc1nc(C(C)(C)C)nc2c1nnn2Cc1ccccc1Cl | % | 0 |
| Cc1ccc(CCSCC(=O)O)cn1 | % | 0 |
| COc1ccc(CC[n+]2cc(/N=C(\C)[O-])on2)cc1OC | % | 0 |
| CCC(=O)N(Cc1ccco1)c1nc(-c2cc(OC)ccc2OC)cs1 | % | 0 |
| CCN(CC)c1ncc(C)c(=O)[nH]1 | % | 1 |
| C[C@]12CC[C@@H]3c4ccc(O)cc4CC[C@H]3[C@@H]1CC[C@@H]2OC(=O)CCC(=O)O | % | 8 |
| N#CC1=C(N)Oc2n[nH]c(-c3cccs3)c2C1c1cccs1 (stereo not given) | % | 2 |
| Cc1cc(-c2ccccc2)nc2cc(C(=O)NCCCn3ccnc3)nn12 | % | 7 |
| O=S(=O)(NCCCCCNS(=O)(=O)c1ccccc1)c1ccccc1 | % | 6 |
| CCc1ccc(NS(=O)(=O)c2ccc3[nH]cc(C(=O)N4CCCCC4)c(=O)c3c2)cc1 | % | 0 |
| O=C(Nc1ccc(Cl)cc1C(=O)Nc1ccncc1)c1ccco1 | % | 4 |
| CCCNC(=O)c1cc(S(=O)(=O)N2CCc3ccccc32)ccc1F | % | 0 |
| COc1ccc2cc(C(c3nnnn3C(C)(C)C)N3CCc4ccccc4C3)c(=O)[nH]c2c1 (stereo not given) | % | 11 |
| CCOC(=O)c1c(C)oc2ccc(O)c(CN3CCCCC3)c12 | % | 12 |
| Cc1cccc(NC(=O)c2cc3ccccc3o2)c1 | % | 5 |
| CCOC(=O)c1cc(-c2ccccc2)sc1N | % | 3 |
| O=C(/C=C/c1ccccc1)c1ccccc1 | % | 0 |
| CC(=O)O[C@H]1C[C@@H]2CC[C@@H]3[C@H](CC[C@@]4(C)[C@H]3C[C@H]([N+]3(C)CCCCC3)[C@@H]4OC(C)=O)[C@@]2(C)C[C@@H]1[N+]1(C)CCCCC1 | % | 0 |
| CCOC(=O)C1CCN(C(=O)Nc2ccc(Cl)cc2Cl)CC1 | % | 0 |
| CCn1nnc(-c2ccccc2NC(=O)c2ccc(-n3cnnn3)cc2)n1 | % | 9 |
| CN(C)C(=O)N1CCCC(C(=O)NCc2ccccc2)C1 (stereo not given) | % | 0 |
| CN(C(=O)COc1cc(=O)n(C)c2ccccc12)c1ccc(Br)cc1 | % | 0 |
| COc1ccc(-n2c(=O)c3c4c(sc3n3cnnc23)CC(C)CC4)cc1 (stereo not given) | % | 1 |
| CCOc1cccc(/C(O)=C2/C(=O)C(=O)N(CCN3CCOCC3)C2c2cccnc2)c1 (stereo not given) | % | 0 |
| C=CCC(NCc1ccco1)c1ccc(OC)cc1OC (stereo not given) | % | 3 |
| CCC1=C(C(=O)OC)C(c2cc(OC)ccc2OC)C(C#N)=C(N)O1 (stereo not given) | % | 8 |
| COc1cc(Cl)c(C)cc1NC(=O)COC(=O)c1cnc(C)cn1 | % | 0 |
| O=C(c1ccccc1)c1ccc2nc[nH]c2c1 | % | 0 |
| Cc1cccc(-n2ncc3c(NCc4ccccn4)ncnc32)c1 | % | 6 |
| CCc1ccc2c(CN(CC)Cc3nc4ccccc4c(=O)[nH]3)cc(=O)oc2c1 | % | 0 |

* * *

# System: Pantothenate synthetase (Mycobacterium tuberculosis (strain ATCC 25618 / H37Rv)) (UniProt P9WIL5)
# Experimental Protocol: Coupled enzyme confirmation of inhibitors against recombinant Mtb PanC (AID 375);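 also: 0% = full reaction with vehicle and 100% = no enzyme background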
# Condition Set: coupled enzyme assay; at 10 µM, stronger effect = higher value
Quick list: inhibition per entry.
Readout Kind: inhibition (%)

| Compound | Val |
| --- | --- |
| CCOC(=O)N1CCN(C(=O)CSc2nnc(COc3ccccc3)o2)CC1 | 2 |
| COc1ccc(-c2cc3nc4n(c(=O)c3s2)CCC4)cc1 | 8 |
| CCOC(=O)c1c(NC(=O)CSc2nc3c(c(=O)n(C)c(=O)n3C)n2C(C)C)sc(C)c1C | 10 |
| Cc1ccc(O)c(C(CC(=O)N2CCCC2)c2ccccc2)c1 (stereo unspecified) | 0 |
| CCOc1nc(-c2ccccc2)ccc1-c1noc(-c2cccnc2)n1 | 0 |
| Cc1cc(C)c(C)c(OCC(=O)NCC2CCCO2)c1 (stereo unspecified) | 0 |

* * *

# System: Pantothenate synthetase (Mycobacterium tuberculosis (strain ATCC 25618 / H37Rv)) (UniProt P9WIL5)
# Experimental Protocol: Coupled enzyme confirmation of inhibitors against recombinant Mtb PanC (AID 375);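 also: 0% = full reaction with vehicle and 100% = no enzyme background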
# Condition Set: coupled enzyme assay; at 10 µM, stronger effect = higher value

| Compound | inhibition / % |
| --- | --- |
| CCc1cc2c(=O)c(-c3ccc4c(c3)OCCO4)coc2cc1OC(=O)c1ccco1 | 0 |
| CS(=O)(=O)c1ncc(Cl)c(C(=O)Nc2ccc(N3CCOCC3)cc2)n1 | 2 |
| CCC(=O)N1CCc2cc(Br)cc(S(=O)(=O)C3(C(=O)OC)CC3)c21 | 0 |
| CCOC(=O)C1=C(C)NC(C)=C(C(=O)OC)C1c1cccc([N+](=O)[O-])c1 (configuration not stated) | 7 |
| CN(C)S(=O)(=O)c1ccc2c(c1)c(=O)c(C(=O)NCCCN1CCCCCC1)cn2C | 0 |
| Fc1ccccc1Cn1nnc2c(-n3ccnc3)ncnc21 | 0 |
| COCCN1C(=O)c2oc3c(C)cc(C)cc3c(=O)c2C1c1cccc(O)c1 (configuration not stated) | 5 |
| CCN(C(=O)Cc1c(C(=O)O)[nH]c2ccccc12)c1cc(OC)ccc1OC | 0 |
| COc1ccc(-c2ccc(CCC(=O)O)n2NC(=O)c2cccs2)cc1 | 0 |
| Cc1noc(C)c1C(=O)N1CCN(C(=O)c2sc3cc(Cl)ccc3c2Cl)CC1 | 7 |
| CCOC(=O)N1CCN(C(=O)c2cccn3c(=O)c4sccc4nc23)CC1 | 0 |
| CCN(CC)CC(C)CNC(=O)CC(C(=O)N1CCc2ccccc21)n1ccnc1 (configuration not stated) | 2 |
| Nc1cc(CN2C(=O)c3ccccc3C2=O)cc(Cl)c1O | 0 |
| Cc1ccc2c(CNCc3ccco3)cc(=O)oc2c1 | 0 |
| Cc1cnn(Cc2ccccc2)c1N | 3 |
| CC(C)CCNC(=O)NC(=O)COc1ccccc1C#N | 4 |
| CCc1nc(NCCCN2CCOCC2)c2oc3ccccc3c2n1 | 2 |
| CC(=O)Nc1cc(NC(C)=O)cc(C(=O)OCC(=O)N2CC(C)OC(C)C2)c1 (configuration not stated) | 2 |
| COC(=O)c1cc(Br)c(=O)n(Cc2cccnc2)c1 | 9 |
| COCc1cc(C)c2c(N)c(C#N)sc2n1 | 1 |
| OC[C@H]1O[C@@H](n2cnc3c(Nc4ccccc4)ncnc32)[C@H](O)[C@@H]1O | 1 |
| C=CCn1c(COc2ccc(Cl)cc2)nnc1SCC(=O)N1CC(=O)Nc2ccccc21 | 0 |
